target: Aldehyde dehydrogenase, mitochondrial (Homo sapiens) (UniProt P05091); assay: qHTS for Inhibitors of the Aldehyde Dehydrogenase Family (ALDH2) Primary screen (AID 2061308); details: ALDH2 enzyme inhibition qHTS, 1536-well; series mostly up to 56 µM; also: nearly all actives have a fitted effect of over 55% in size
Results filed as inconclusive are left out. Activity calls are given as the source filed them. Calls follow the shape of the dose curve; as a rule, active = well fitted inhibition curve with a large enough effect; inconclusive = small, poorly fitted or top-dose-only effect; inactive = flat fitted curve, though single readings scatter.

compound	activity change, negative = inhibition
CC1(C)[C@@H](O[C@H]2O[C@H](C(=O)O)[C@@H](O)[C@H](O)[C@H]2O[C@@H]2O[C@H](C(=O)O)[C@@H](O)[C@H](O)[C@H]2O)CC[C@]2(C)[C@H]3C(=O)C=C4[C@@H]5C[C@@](C)(C(=O)O)CC[C@]5(C)CC[C@@]4(C)[C@]3(C)CC[C@@H]12	inactive
COc1c2c(c(C)c3c1C(=O)OC3)O[C@@]1(C)C[C@@H](OC(C)=O)[C@]34O[C@](OC)(CC[C@]3(C)[C@H]1C2)OC4(C)C	inactive
Cc1cncc2cccc(S(=O)(=O)N3CCCN(C(=O)CN)C[C@@H]3C)c12	inactive
COc1cc(O)c2c(c1)C1(OC2=O)C(C)=CC(=O)C1O (stereo not drawn)	inactive
CC(C)c1cc(-c2n[nH]c(=O)n2-c2ccc3c(ccn3C)c2)c(O)cc1O	inactive
COc1cc(C#N)ccc1S(=O)(=O)Nc1ccc2c(c1)cc(C)c(=O)n2C	inactive
CC1=C2C[C@H]3OC(=O)[C@H](O)[C@@]4(O)[C@@H](C)[C@@H](O)[C@H](O)C([C@@]2(C)[C@H](O)[C@@H](O)C1)[C@@]34C (stereo partly drawn)	inactive
CC1(C)CC[C@]2(C(=O)O[C@@H]3O[C@H](CO)[C@@H](O)[C@H](O)[C@H]3O)CC[C@]3(C)C(=CCC4[C@@]5(C)C[C@@H](O)[C@H](O)C(CO)(CO)C5CC[C@]43C)C2[C@@H]1O (stereo partly drawn)	inactive

###

Assay: BET inhibitor-based combinations targeting novel dependencies in MECOM-rearranged (r) AML: AML-191 cell line (AID 2202236; also: nearly all actives have a fitted effect of over 35% in size)
Settings: AML-191 viability, CellTiter-Glo luminescence, 48 h; series mostly up to 46 µM
Experimental: Ecotropic viral insertion site 1 (EVI1) is located on chromosome 3q26.2 as part of the MECOM (MDS and EVI1 complex) locus. […] A collection of 2480 mechanistically annotated dugs (MIPE v5.0) was used to screen four 3q26.2 rearranged AML cell lines and three non-3q26.2 rearranged AML cell lines. […] Cell viability was determined by luminescence based, Cell Titer Glo assay (Promega). […] Luminescence readings were taken using a Viewlux (PerkinElmer) with a 2 s exposure time per plate. […]
Records with an inconclusive call do not appear. Calls of active or inactive are those of the source. The call rests on the fitted dose curve; in most records, active means well fitted inhibition curve with a large enough effect; inconclusive means small, poorly fitted or top-dose-only effect; inactive means flat fitted curve, though single readings scatter.
Outcomes: true = active, false = inactive

> print(dat)
                                    compound  answer.label
 1  CC(C)(C)c1cc(C(=O)O)c(NC(=O)Nc2ccc3[nH]ncc3c2)s1         false
 2  CCCOc1ccn2c(C(C)=O)cc(-c3ccccc3S(C)(=O)=O)c2c1          true
 3                CCC1(c2ccccc2)C(=O)NCNC1=O         false
 4  CC(C)[C@H](O)C(=O)N[C@@H](C)C(=O)N[C@@H]1C(=O)N(C)CCc2ccccc21         false
 5            N[C@@H](Cc1ccc(O)c(O)c1)C(=O)O         false
 6  Nc1ncnc2c1C(=O)N(c1ccc(C3CCC(CC(=O)O)CC3)cc1)CCO2 (stereo not given)         false
 7  Cc1cccc(-c2nn(C(=S)Nc3ccccc3)cc2-c2ccnc3ccccc23)n1         false
 8  COc1cccc(Nc2c(C(N)=O)cnc3c(C)cc(S(=O)(=O)c4cccc(C(=O)N(C)C)c4)cc23)c1          true
 9  C[C@H]1c2cccc(O)c2C(O)=C2C(=O)[C@]3(O)C(O)=C(C(N)=O)C(=O)[C@@H](N(C)C)[C@@H]3[C@@H](O)[C@@H]21          true
10  CCN1CCN(Cc2ccc(NC(=O)c3ccc(C)c(NC(=O)c4cncc(-c5cccs5)c4)c3)cc2C(F)(F)F)CC1          true

Reference for the values: PubChem BioAssay (NCATS)
